Test system: serum IgE anti-estrogen antibodies
Test: ELISA binding of IgE estrogen antibodies to different hormones in solid phase
Design: species or system human
Conditions: sample 3; relative to estrogen = 100
ENDPOINT: IgE % reaction (%)

INSERT INTO results (molecule, unit_of_measure, recorded_result) VALUES
  ('CC(=O)[C@H]1CC[C@H]2[C@@H]3CCC4=CC(=O)CC[C@]4(C)[C@H]3CC[C@]12C', '%', '−39'),
  ('C[C@]12CCC(=O)C=C1CC[C@@H]1[C@@H]2[C@@H](O)C[C@@]2(C)[C@H]1CC[C@]2(O)C(=O)CO [HC, Hydrocortisone]', '%', '−16'),
  ('CC(=O)[C@@]1(O)CC[C@H]2[C@@H]3CCC4=CC(=O)CC[C@]4(C)[C@H]3CC[C@@]21C [HP, 17-α-hydroxy-progesterone]', '%', '−46'),
  ('CC(C)CCC[C@@H](C)[C@H]1CC[C@H]2[C@@H]3CC=C4C[C@@H](O)CC[C@]4(C)[C@H]3CC[C@]12C', '%', '−17');

====

Catalogue of molecules with associated IgG binding (optical density)
Tested on: serum IgG anti-estrogen antibodies
Assay: ELISA binding of IgG estrogen antibodies to different hormones in solid phase
Parameters: species or system human
Details: sample 1; hormone in solid phase; 405 nm
ENDPOINT: IgG binding (optical density)

INSERT INTO results (molecule, recorded_result) VALUES
  ('CC(C)CCC[C@@H](C)[C@H]1CC[C@H]2[C@@H]3CC=C4C[C@@H](O)CC[C@]4(C)[C@H]3CC[C@]12C', 0.12),
  ('CC(=O)[C@H]1CC[C@H]2[C@@H]3CCC4=CC(=O)CC[C@]4(C)[C@H]3CC[C@]12C', 0.35),
  ('C[C@]12CCC(=O)C=C1CC[C@@H]1[C@@H]2[C@@H](O)C[C@@]2(C)[C@H]1CC[C@]2(O)C(=O)CO [HC, Hydrocortisone]', 0.15),
  ('CC(=O)[C@@]1(O)CC[C@H]2[C@@H]3CCC4=CC(=O)CC[C@]4(C)[C@H]3CC[C@@]21C [HP, 17-α-hydroxy-progesterone]', 0.42);

====

Catalogue of compounds with associated IgE binding (optical density)
Test system: serum IgE anti-estrogen antibodies
Assay: ELISA binding of IgE estrogen antibodies to different hormones in solid phase
Set-up: species or system human
Details: sample 2; hormone in solid phase; 405 nm
ENDPOINT: IgE binding (optical density)

INSERT INTO results (compound, endpoint, recorded_result) VALUES
  ('CC(=O)[C@H]1CC[C@H]2[C@@H]3CCC4=CC(=O)CC[C@]4(C)[C@H]3CC[C@]12C [Progesterone, progesterone]', 'IgE binding (optical density)', 0.53),
  ('CC(C)CCC[C@@H](C)[C@H]1CC[C@H]2[C@@H]3CC=C4C[C@@H](O)CC[C@]4(C)[C@H]3CC[C@]12C [C, Cholesterol]', 'IgE binding (optical density)', 0.21),
  ('CC(=O)[C@@]1(O)CC[C@H]2[C@@H]3CCC4=CC(=O)CC[C@]4(C)[C@H]3CC[C@@]21C [HP, 17-α-hydroxy-progesterone]', 'IgE binding (optical density)', 0.65),
  ('C[C@]12CCC(=O)C=C1CC[C@@H]1[C@@H]2[C@@H](O)C[C@@]2(C)[C@H]1CC[C@]2(O)C(=O)CO [HC, Hydrocortisone]', 'IgE binding (optical density)', 0.29);
